assay: Metabolic stability in rat liver microsomes assessed as compound remaining at 1 uM measured after 30 mins; type: ADME; details: read-out: Stability
Classify: satisfied when remaining at 0.5 h, 1 µM is strictly less than 60%; not satisfied when remaining at 0.5 h, 1 µM is not.

# sample.smiles, class
rows = [
    ("O=C(Cn1cc(-c2ccc(-n3ccnc3)cc2)nn1)Nc1cccc(Cl)c1Cl", "not satisfied"),
    ("COc1cc(-c2cn(CC(=O)Nc3cccc4ccccc34)nn2)ccc1-n1cnc(C)c1", "not satisfied"),
    ("Cc1cn(-c2ccc(-c3cn(CC(=O)Nc4cccc(Cl)c4Cl)nn3)cc2)cn1", "not satisfied"),
    ("COc1cc(-c2cn(CC(=O)Nc3cccc(Cl)c3Cl)nn2)ccc1-n1cnc(C)c1", "satisfied"),
    ("Cc1cn(-c2ccc(-c3cn(CC(=O)Nc4cccc(Cl)c4Cl)nn3)c(F)c2)cn1", "satisfied"),
    ("Cc1nccn1-c1ccc(-c2cn(CC(=O)Nc3cccc(Cl)c3Cl)nn2)cc1", "not satisfied"),
    ("Cc1cn(-c2ccc(-c3cn(CC(=O)Nc4cccc(Cl)c4Cl)nn3)cc2F)cn1", "satisfied"),
    ("Cc1nccn1-c1ccc(-c2cn(CC(=O)Nc3cccc(Cl)c3Cl)nn2)cn1", "not satisfied"),
]

====

target: Probable G-protein coupled receptor 142 (Mus musculus); experiment: Agonist activity at mouse GPR142 expressed in CHO cells measured after 30 to 60 mins by IP-One assay; assay type: cell-based

# sample.smiles, target.desc, EC50 [nM]
measured = [
    ("Cc1cn(-c2ccc(-c3cn(CC(=O)Nc4cccc(Cl)c4Cl)nn3)cc2)cn1", "Probable G-protein coupled receptor 142 (Mus musculus)", 12),
    ("COc1cc(-c2cn(CC(=O)Nc3cccc4ccccc34)nn2)ccc1-n1cnc(C)c1", "Probable G-protein coupled receptor 142 (Mus musculus)", 23),
    ("O=C(Cn1cc(-c2ccc(-n3ccnc3)cc2)nn1)Nc1cccc(Cl)c1Cl", "Probable G-protein coupled receptor 142 (Mus musculus)", 3),
    ("Cc1cn(-c2ccc(-c3cn(CC(=O)Nc4cccc(Cl)c4Cl)nn3)cc2F)cn1", "Probable G-protein coupled receptor 142 (Mus musculus)", 9),
    ("Cc1nccn1-c1ccc(-c2cn(CC(=O)Nc3cccc(Cl)c3Cl)nn2)cc1", "Probable G-protein coupled receptor 142 (Mus musculus)", 3),
    ("Cc1nccn1-c1ccc(-c2cn(CC(=O)Nc3cccc(Cl)c3Cl)nn2)cn1", "Probable G-protein coupled receptor 142 (Mus musculus)", 2),
    ("Cc1cn(-c2ccc(-c3cn(CC(=O)Nc4cccc(Cl)c4Cl)nn3)c(F)c2)cn1", "Probable G-protein coupled receptor 142 (Mus musculus)", 19),
    ("COc1cc(-c2cn(CC(=O)Nc3cccc(Cl)c3Cl)nn2)ccc1-n1cnc(C)c1", "Probable G-protein coupled receptor 142 (Mus musculus)", 36),
    ("COc1cc(-c2cn(CC(=O)Nc3cccc(C)c3C)nn2)ccc1-n1cnc(C)c1", "Probable G-protein coupled receptor 142 (Mus musculus)", 80),
]

====

The following molecules are shown together with reported pIC50 values.
target: Sodium channel protein type 5 subunit alpha (Homo sapiens); assay: Inhibition of Nav1.5 (unknown origin)
Sequence (Q14524 whole entry): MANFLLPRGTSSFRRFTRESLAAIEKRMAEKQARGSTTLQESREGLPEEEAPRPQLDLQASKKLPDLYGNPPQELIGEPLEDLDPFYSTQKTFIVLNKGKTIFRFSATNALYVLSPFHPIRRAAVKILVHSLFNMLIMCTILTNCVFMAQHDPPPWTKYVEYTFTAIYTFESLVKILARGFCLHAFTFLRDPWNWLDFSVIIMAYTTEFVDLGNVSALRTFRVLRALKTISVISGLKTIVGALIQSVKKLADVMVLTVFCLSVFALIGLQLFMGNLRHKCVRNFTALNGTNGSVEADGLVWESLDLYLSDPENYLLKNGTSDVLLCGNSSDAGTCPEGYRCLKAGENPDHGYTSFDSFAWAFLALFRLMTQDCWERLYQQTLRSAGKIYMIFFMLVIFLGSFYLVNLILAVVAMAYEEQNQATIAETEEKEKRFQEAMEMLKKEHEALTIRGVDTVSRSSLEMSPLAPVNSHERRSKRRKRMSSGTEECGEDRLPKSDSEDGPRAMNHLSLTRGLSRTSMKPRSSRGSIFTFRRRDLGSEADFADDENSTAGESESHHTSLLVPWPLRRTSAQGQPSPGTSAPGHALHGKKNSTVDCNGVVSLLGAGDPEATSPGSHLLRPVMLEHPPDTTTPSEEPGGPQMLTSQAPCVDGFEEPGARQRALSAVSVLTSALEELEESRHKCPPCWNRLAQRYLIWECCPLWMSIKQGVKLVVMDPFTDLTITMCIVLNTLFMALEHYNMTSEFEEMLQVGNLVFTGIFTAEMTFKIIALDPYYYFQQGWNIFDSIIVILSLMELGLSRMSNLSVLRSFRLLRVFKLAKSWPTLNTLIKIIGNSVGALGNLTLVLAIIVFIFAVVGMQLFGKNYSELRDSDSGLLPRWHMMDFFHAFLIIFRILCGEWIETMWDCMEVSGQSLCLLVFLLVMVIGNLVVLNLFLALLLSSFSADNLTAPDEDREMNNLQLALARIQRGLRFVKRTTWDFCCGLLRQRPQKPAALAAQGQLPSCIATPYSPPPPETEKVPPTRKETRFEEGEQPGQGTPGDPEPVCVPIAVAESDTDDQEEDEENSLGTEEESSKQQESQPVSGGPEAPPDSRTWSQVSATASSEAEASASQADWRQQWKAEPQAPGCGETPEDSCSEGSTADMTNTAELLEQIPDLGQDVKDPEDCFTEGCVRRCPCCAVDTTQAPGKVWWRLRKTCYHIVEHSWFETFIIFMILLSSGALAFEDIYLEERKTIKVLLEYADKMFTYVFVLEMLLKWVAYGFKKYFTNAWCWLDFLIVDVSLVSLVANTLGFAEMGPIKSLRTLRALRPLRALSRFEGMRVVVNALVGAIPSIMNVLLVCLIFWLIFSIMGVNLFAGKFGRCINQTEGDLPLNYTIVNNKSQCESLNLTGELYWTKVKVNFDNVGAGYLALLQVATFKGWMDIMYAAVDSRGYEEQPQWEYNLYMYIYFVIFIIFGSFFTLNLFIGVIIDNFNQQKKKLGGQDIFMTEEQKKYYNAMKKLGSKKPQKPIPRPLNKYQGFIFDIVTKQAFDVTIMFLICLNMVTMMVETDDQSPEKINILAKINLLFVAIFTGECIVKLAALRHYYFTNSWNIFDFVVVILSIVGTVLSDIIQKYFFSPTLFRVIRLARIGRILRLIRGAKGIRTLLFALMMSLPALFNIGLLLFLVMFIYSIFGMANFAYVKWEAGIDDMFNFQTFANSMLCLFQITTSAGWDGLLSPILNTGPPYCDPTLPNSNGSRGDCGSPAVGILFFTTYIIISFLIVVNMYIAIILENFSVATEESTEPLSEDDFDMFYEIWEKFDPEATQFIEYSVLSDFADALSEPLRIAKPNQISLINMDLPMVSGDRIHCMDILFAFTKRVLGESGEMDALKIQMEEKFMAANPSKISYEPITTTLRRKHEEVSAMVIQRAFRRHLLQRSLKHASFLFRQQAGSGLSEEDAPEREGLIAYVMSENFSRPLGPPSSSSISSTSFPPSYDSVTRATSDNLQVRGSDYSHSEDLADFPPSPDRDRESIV
pIC50: −log10 of the molar value.
readout.type: pIC50

# sample.smiles, readout.type, assay.result
data = [
    ("Cc1cn(-c2ccc(-c3cn(CC(=O)Nc4cccc(Cl)c4Cl)nn3)cc2F)cn1", "pIC50", "< 4.52"),
    ("Cc1nccn1-c1ccc(-c2cn(CC(=O)Nc3cccc(Cl)c3Cl)nn2)cn1", "pIC50", "< 4.52"),
    ("Cc1nccn1-c1ccc(-c2cn(CC(=O)Nc3cccc(Cl)c3Cl)nn2)cc1", "pIC50", 4.68),
]

====

The following compounds are shown together with reported logD values.
test: Lipophilicity, log D of the compound at pH 7; type: physicochemical; conditions: buffer

# compound, logD
records = [
    ("Cc1nccn1-c1ccc(-c2cn(CC(=O)Nc3cccc(Cl)c3Cl)nn2)cn1", 2.14),
    ("Cc1cn(-c2ccc(-c3cn(CC(=O)Nc4cccc(Cl)c4Cl)nn3)cc2F)cn1", 2.76),
    ("COc1cc(-c2cn(CNC(=O)Nc3cccc4ccccc34)nn2)ccc1-n1cnc(C)c1", 1.93),
    ("COc1cc(-c2cn(CC(=O)Nc3cccc(Cl)c3Cl)nn2)ccc1-n1cnc(C)c1", 2.57),
    ("COc1cc(-c2cn(CNc3cccc4ccccc34)nn2)ccc1-n1cnc(C)c1", 2.89),
    ("COc1cc(-c2cn(CC(=O)NC3CCCc4ccccc43)nn2)ccc1-n1cnc(C)c1 (centres undefined)", 2.41),
    ("O=C(Cn1cc(-c2ccc(-n3ccnc3)cc2)nn1)Nc1cccc(Cl)c1Cl", 2.22),
    ("COc1cc(-c2cn(CNC(=O)c3cccc4ccccc34)nn2)ccc1-n1cnc(C)c1", 1.96),
    ("Cc1cn(-c2ccc(-c3cn(CC(=O)Nc4cccc(Cl)c4Cl)nn3)cc2)cn1", 2.54),
    ("COc1cc(-c2cn(CC(=O)Nc3cccc(C)c3C)nn2)ccc1-n1cnc(C)c1", 2.17),
    ("Cc1cn(-c2ccc(-c3cn(CC(=O)Nc4cccc(Cl)c4Cl)nn3)c(F)c2)cn1", 2.68),
    ("Cc1nccn1-c1ccc(-c2cn(CC(=O)Nc3cccc(Cl)c3Cl)nn2)cc1", 2.42),
    ("COc1cc(-c2cn(CC(=O)Nc3cccc(F)c3F)nn2)ccc1-n1cnc(C)c1", 2.13),
    ("Cc1nccn1Cc1ccc(-c2cn(CC(=O)Nc3cccc(Cl)c3Cl)nn2)cc1", 2.27),
]

====

target: Voltage-dependent L-type calcium channel subunit alpha-1C (Homo sapiens); assay: Inhibition of Cav1.2 (unknown origin)
Sequence (Q13936 whole entry): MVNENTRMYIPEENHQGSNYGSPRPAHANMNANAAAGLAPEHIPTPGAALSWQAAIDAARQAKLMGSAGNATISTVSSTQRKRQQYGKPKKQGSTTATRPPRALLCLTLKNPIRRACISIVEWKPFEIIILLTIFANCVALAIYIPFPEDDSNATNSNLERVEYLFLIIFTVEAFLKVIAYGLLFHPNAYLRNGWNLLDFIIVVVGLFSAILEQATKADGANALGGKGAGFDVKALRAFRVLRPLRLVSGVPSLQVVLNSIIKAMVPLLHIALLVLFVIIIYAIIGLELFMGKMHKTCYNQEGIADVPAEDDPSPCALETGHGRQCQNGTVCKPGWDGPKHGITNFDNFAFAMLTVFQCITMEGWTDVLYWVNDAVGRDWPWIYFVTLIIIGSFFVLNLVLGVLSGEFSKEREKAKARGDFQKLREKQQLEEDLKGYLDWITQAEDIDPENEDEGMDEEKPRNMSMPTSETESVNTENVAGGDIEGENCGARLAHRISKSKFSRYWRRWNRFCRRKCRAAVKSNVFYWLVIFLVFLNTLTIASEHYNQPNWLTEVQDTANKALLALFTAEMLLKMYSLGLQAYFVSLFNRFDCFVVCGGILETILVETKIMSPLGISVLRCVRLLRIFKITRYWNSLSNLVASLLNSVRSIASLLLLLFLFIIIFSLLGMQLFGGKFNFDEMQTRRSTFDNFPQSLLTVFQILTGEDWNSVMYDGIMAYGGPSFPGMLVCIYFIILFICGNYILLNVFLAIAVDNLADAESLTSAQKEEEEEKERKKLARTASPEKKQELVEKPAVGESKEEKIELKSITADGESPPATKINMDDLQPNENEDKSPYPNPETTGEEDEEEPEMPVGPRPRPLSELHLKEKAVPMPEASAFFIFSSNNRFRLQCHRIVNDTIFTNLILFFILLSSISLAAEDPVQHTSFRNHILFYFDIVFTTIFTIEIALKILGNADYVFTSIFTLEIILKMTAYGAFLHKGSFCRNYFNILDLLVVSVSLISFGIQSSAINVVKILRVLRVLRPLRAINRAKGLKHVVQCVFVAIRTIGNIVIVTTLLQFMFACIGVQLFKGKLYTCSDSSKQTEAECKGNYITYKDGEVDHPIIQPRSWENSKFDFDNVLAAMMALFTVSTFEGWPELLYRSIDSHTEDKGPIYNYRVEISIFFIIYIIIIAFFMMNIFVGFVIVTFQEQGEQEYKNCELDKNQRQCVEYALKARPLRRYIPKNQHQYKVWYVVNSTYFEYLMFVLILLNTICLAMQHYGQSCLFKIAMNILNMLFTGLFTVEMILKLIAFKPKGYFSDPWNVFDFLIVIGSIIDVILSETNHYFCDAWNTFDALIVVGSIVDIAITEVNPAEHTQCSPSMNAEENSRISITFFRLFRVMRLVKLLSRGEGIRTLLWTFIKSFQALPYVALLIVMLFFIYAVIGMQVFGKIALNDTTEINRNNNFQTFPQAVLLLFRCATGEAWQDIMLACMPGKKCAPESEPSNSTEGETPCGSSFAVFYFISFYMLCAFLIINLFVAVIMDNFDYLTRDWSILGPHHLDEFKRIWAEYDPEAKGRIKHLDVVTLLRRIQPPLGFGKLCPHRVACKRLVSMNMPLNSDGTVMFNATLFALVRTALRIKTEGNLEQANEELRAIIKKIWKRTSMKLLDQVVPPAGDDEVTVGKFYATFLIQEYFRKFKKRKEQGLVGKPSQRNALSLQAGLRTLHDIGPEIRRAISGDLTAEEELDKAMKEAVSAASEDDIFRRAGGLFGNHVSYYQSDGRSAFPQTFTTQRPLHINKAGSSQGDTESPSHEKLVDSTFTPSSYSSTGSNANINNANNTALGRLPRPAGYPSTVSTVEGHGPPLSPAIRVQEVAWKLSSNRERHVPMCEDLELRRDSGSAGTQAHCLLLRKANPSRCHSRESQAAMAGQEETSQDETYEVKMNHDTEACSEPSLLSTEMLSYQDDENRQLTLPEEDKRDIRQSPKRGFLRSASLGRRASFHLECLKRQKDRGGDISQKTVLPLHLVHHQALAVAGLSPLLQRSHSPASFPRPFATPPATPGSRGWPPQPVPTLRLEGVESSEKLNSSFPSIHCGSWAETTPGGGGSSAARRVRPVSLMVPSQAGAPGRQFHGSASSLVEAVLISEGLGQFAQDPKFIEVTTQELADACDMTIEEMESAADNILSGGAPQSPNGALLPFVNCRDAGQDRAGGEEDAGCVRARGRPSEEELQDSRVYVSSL
pIC50: −log10 of the molar value.
The following compounds are shown together with reported pIC50 values.

# sample.smiles, pIC50
data = [
    ("Cc1nccn1-c1ccc(-c2cn(CC(=O)Nc3cccc(Cl)c3Cl)nn2)cn1", "< 4.52"),
    ("Cc1nccn1-c1ccc(-c2cn(CC(=O)Nc3cccc(Cl)c3Cl)nn2)cc1", 4.68),
    ("Cc1cn(-c2ccc(-c3cn(CC(=O)Nc4cccc(Cl)c4Cl)nn3)cc2F)cn1", "< 4.52"),
]

====

experiment: Plasma clearance in Sprague-Dawley rat at 1 mg/kg, iv or 2 mg/kg, po; type: ADME, organism-based

# sample.smiles, quantity.unit, clearance
data = [
    ("Cc1cn(-c2ccc(-c3cn(CC(=O)Nc4cccc(Cl)c4Cl)nn3)cc2F)cn1", "mL/min/kg", 8.7),
    ("Cc1nccn1-c1ccc(-c2cn(CC(=O)Nc3cccc(Cl)c3Cl)nn2)cn1", "mL/min/kg", 13),
    ("Cc1nccn1-c1ccc(-c2cn(CC(=O)Nc3cccc(Cl)c3Cl)nn2)cc1", "mL/min/kg", 13),
]

====

target: Probable G-protein coupled receptor 142 (Mus musculus, UniProt Q7TQN9); assay: Agonist activity at mouse GPR142 expressed in CHO cells measured for 3 to 5 mins by Fluo-4AM dye-based FLIPR assay; format: cell-based
Sequence (Q7TQN9 whole entry): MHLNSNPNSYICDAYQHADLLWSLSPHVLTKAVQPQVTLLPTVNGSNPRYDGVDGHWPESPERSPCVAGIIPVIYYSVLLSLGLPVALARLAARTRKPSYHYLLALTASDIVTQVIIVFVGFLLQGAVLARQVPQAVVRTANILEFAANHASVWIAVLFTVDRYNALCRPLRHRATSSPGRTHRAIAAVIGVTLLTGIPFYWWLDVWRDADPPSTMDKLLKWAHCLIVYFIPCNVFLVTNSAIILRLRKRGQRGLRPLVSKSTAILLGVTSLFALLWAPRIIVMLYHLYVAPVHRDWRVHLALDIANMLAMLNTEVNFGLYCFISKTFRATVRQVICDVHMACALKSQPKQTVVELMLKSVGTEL
readout.type: log10(EC50) (log10 of the value in nM)

# sample.smiles, target.desc, log10(EC50)
measured = [
    ("COc1cc(-c2cn(CC(=O)Nc3cccc(Cl)c3Cl)nn2)ccc1-n1cnc(C)c1", "Probable G-protein coupled receptor 142 (Mus musculus, UniProt Q7TQN9)", 2.30),
    ("Cc1cn(-c2ccc(-c3cn(CC(=O)Nc4cccc(Cl)c4Cl)nn3)cc2)cn1", "Probable G-protein coupled receptor 142 (Mus musculus, UniProt Q7TQN9)", 1.28),
    ("O=C(Cn1cc(-c2ccc(-n3ccnc3)cc2)nn1)Nc1cccc(Cl)c1Cl", "Probable G-protein coupled receptor 142 (Mus musculus, UniProt Q7TQN9)", 1.26),
    ("Cc1nccn1-c1ccc(-c2cn(CC(=O)Nc3cccc(Cl)c3Cl)nn2)cn1", "Probable G-protein coupled receptor 142 (Mus musculus, UniProt Q7TQN9)", 0.90),
    ("Cc1nccn1-c1ccc(-c2cn(C(C)(C)C(=O)Nc3cccc(Cl)c3Cl)nn2)cc1", "Probable G-protein coupled receptor 142 (Mus musculus, UniProt Q7TQN9)", 2.90),
    ("COc1cc(-c2cn(CC(=O)Nc3cccc4ccccc34)nn2)ccc1-n1cnc(C)c1", "Probable G-protein coupled receptor 142 (Mus musculus, UniProt Q7TQN9)", 1.57),
    ("Cc1cn(-c2ccc(-c3cn(CC(=O)Nc4cccc(Cl)c4Cl)nn3)c(F)c2)cn1", "Probable G-protein coupled receptor 142 (Mus musculus, UniProt Q7TQN9)", 2.84),
    ("Cc1cn(-c2ccc(-c3cn(CC(=O)Nc4cccc(Cl)c4Cl)nn3)cc2F)cn1", "Probable G-protein coupled receptor 142 (Mus musculus, UniProt Q7TQN9)", 1.89),
    ("Cc1nccn1-c1ccc(-c2cn(CC(=O)Nc3cccc(Cl)c3Cl)nn2)cc1", "Probable G-protein coupled receptor 142 (Mus musculus, UniProt Q7TQN9)", 1.43),
]

Cited source: ChEMBL document CHEMBL3864182
